System: HEK293 cells
Assay: MTT cell viability assay of transfected HEK293 cells
Assay type: cell-based, human
Settings: 100% being cell viability of untreated cells; 24 h after addition of transfection agents
Observation Type: MTT toxicity assay, cell viability (between brackets), HEK293 (%)
Give bare numbers, in %.

Hi! Can you tell me MTT toxicity assay, cell viability (between brackets), HEK293 for each of these molecules?
1. CCCCCCCCCCCCCCCC(=O)NCCN(CCNC(=O)CCCCCCCCCCCCCCC)C(=O)CCC(=O)N[C@@H](CCCNC(=N)N)C(=O)N[C@@H](CCCNC(=N)N)C(N)=O.O=C(O)C(F)(F)F.O=C(O)C(F)(F)F
2. CCCCCCCCCCCCCCCC(=O)NCCN(CCNC(=O)CCCCCCCCCCCCCCC)C(=O)/C=C\C(=O)N[C@@H](CCCNC(=N)N)C(=O)N[C@@H](CCCNC(=N)N)C(=O)N[C@@H](CCCNC(=N)N)C(N)=O.O=C(O)C(F)(F)F.O=C(O)C(F)(F)F.O=C(O)C(F)(F)F
3. CCCCCCCCCCCCCCCC(=O)NCCN(CCNC(=O)CCCCCCCCCCCCCCC)C(=O)CCC(=O)N[C@@H](CCCNC(=N)N)C(=O)N[C@@H](CCCNC(=N)N)C(=O)N[C@@H](CCCNC(=N)N)C(N)=O.O=C(O)C(F)(F)F.O=C(O)C(F)(F)F.O=C(O)C(F)(F)F

97
96
95

Given the molecule CCCCCCCCCCCCCCCC(=O)NCCN(CCNC(=O)CCCCCCCCCCCCCCC)C(=O)/C=C\C(=O)N[C@@H](CCCNC(=N)N)C(=O)N[C@@H](CCCNC(=N)N)C(N)=O.O=C(O)C(F)(F)F.O=C(O)C(F)(F)F , what is its reported MTT toxicity assay, cell viability (between brackets), HEK293?
98
